Cited source for all entries: ChEMBL document CHEMBL3407335

# System: CCRF-CEM
# protocol summary: Cytotoxicity against human CCRF-CEM cells after 48 hrs by CellTitre-Blue assay
# Assay type: functional, cell-based

{"structure smiles string": "CCOc1ccccc1C(=O)/C=C/c1cc2ccccc2[nH]1", "target system": "CCRF-CEM", "IC50 (nM)": 32}

====

# protocol summary: Cytotoxicity against mouse M210B4 cells after 48 hrs by CellTitre-Blue assay
# Assay type: cell-based
# condition context: M210B4, 48 h
metric: IC50

{"structure smiles string": "CCOc1ccccc1C(=O)/C=C/c1ccc2c(c1)OCO2", "metric": "IC50", "meas value": "> 100 µM"}
{"structure smiles string": "CCOc1ccccc1C(=O)/C=C/c1cc2ccccc2c2ccccc12", "metric": "IC50", "meas value": "> 100 µM"}
{"structure smiles string": "CCOc1ccccc1C(=O)/C=C/c1ccc2cc(OC)ccc2c1", "metric": "IC50", "meas value": "> 100 µM"}
{"structure smiles string": "CCCCOc1ccccc1C(=O)/C=C/c1ccc2ccccc2c1", "metric": "IC50", "meas value": "> 100 µM"}
{"structure smiles string": "CCCOc1ccccc1C(=O)/C=C/c1ccc2ccccc2c1", "metric": "IC50", "meas value": "> 100 µM"}
{"structure smiles string": "CC(C)Oc1ccccc1C(=O)/C=C/c1ccc2ccccc2c1", "metric": "IC50", "meas value": "> 100 µM"}
{"structure smiles string": "C=Cc1cccc(/C=C/C(=O)c2ccccc2OCC)c1", "metric": "IC50", "meas value": "> 100 µM"}

====

Readings of IC50 for the listed compounds
# protocol summary: Cytotoxicity against human OCI-LY7 cells after 48 hrs by CellTitre-Blue assay
# Format: functional, cell-based
# condition context: OCI-Ly7, 48 h

{"structure smiles string": "CCOc1ccccc1C(=O)/C=C/c1ccc2cc(OC)ccc2c1", "value units": "nM", "IC50": 1000}
{"structure smiles string": "CCOc1ccccc1C(=O)/C=C/c1cccc2ccccc12", "value units": "nM", "IC50": 1500}
{"structure smiles string": "CCOc1ccccc1C(=O)/C=C/c1cc2ccccc2c2ccccc12", "value units": "nM", "IC50": 680}
